target: IgV domain of human SIRPα v1 (Homo sapiens (Human)., UniProt P78324-1); assay: SPR
Sequence (P78324 31-149): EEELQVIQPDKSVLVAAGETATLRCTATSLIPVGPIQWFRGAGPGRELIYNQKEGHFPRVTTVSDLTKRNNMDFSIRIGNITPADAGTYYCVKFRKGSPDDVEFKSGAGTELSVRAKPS
measurement.type: pKd
Numbers only, as −log10 of the molar value.

binder="anti-SIRPα antibody clone 3, full-length IgG1 (antibody, V domains shown) VH: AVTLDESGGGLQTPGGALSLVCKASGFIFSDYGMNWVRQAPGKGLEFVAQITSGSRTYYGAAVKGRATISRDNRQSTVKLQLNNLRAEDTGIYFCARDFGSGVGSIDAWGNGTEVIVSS VL: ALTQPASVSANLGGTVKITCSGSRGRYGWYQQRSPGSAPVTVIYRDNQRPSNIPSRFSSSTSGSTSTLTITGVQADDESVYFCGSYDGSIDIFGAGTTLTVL" value_observed=9.79
binder="anti-SIRPα clone 218, scFv-Fc (scFv, V domains shown) VH: DVQLVESGGGVVRPGESLTLSCTASGFTFTSSTMNWVRQAPGEGLDWVSSISTSGVITYYADSVKGRATISRDNSKNTLYLRLFSLRADDTAIYYCATDTFDHWGPGTLVTVSS VL: ALTQPASVSANPGETVKITCFGSSGNYGWFQQKSPGSAPVTVIHYNNKRPSDIPSRFSGSKSGSTGTLTITGVRAEDEAVYFCGAWETGSATFGAGTTLTVL" value_observed=9.91
binder="anti-SIRPα antibody clone 115, full-length IgG1 (antibody, V domains shown) VH: DVQLVESGGGVVRPGESLRLSCAASGFSFSSYAMNWVRQAPGEGLEWVSRINSGGGGTDYAESVKGRFTISRDNSENTLYLQMNSLRAEDTAVYYCAKQYDWNSFFDYWGLGALVTVSS VL: ETVLTQSPATLSVSPGERATLSCRASQTVGSKLAWHQQKPGQAPRLLIYDATNRATGISDRFSGSGSGTDFTLTISSLQTEDSAVYYCQQYYYWPPYRFGGGTKVEIK" value_observed=9.37

Then this binder:
Entry anti-SIRPα antibody clone 119, full-length IgG1 (antibody, V domains shown) VH: DVQLLESGGGVVQPGGSLRLSCAASGFSFSNFAMTWVRQAPGEGLEWVSTIGSGDTYYADSVKGRFTISRDNSKNTLYLQMNSLRAEDTAVYYCAKDSTVSWSGDFFDYWGQGTLVTVSS VL: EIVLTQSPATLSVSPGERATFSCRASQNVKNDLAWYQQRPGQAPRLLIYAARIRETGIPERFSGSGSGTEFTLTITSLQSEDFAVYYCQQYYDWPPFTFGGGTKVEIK — recorded pKd = 9.74
